test_details: Cytotoxicity assay, dihydroethidium staining, flow cytometry
Assay type: cell-based, human
details: human
Kindly supply the reported IC50 values for the records listed here.
One number for each entry, in µM.

>  <molecule>
C=C(C)[C@@H]1CC[C@]2(C(=O)NCCCN3CCN(CCCN)CC3)CC[C@]3(C)C(CCC4[C@@]5(C)CC[C@H](OC(C)=O)C(C)(C)C5CC[C@]43C)C12 (some centres unmarked)

>  <endpoint_result>
4

$$$$

Now consider a different molecule.
Requested field: IC50. Item: C=C(C)[C@@H]1CC[C@]2(C(=O)NCCCN3CCN(CCCNC(=O)OC(C)(C)C)CC3)CC[C@]3(C)C(CCC4[C@@]5(C)CC[C@H](OC(C)=O)C(C)(C)C5CC[C@]43C)C12 (some centres unmarked)
4
